pIC50: −log10 of the molar value.
From various publications: pIC50 for Serine/threonine-protein kinase ATR (Homo sapiens, UniProt Q13535).
Readout Label: pIC50

| Compound Smiles | Inequality Sign | Recorded Value |
| --- | --- | --- |
| Cc1nn(CC2COC2)c(C)c1-c1cc(N2CCOC[C@H]2C)nc(-c2ccnc3[nH]ccc23)n1 | = | 7.74 |
| Cc1n[nH]c(C)c1-c1cc(-c2ccnc3[nH]ccc23)nc(N2CCOC[C@H]2C)c1 | = | 7.46 |
| C[C@@H]1COCCN1c1cc(-c2ccc(F)c3[nH]ccc23)nc2c1ccn2S(C)(=O)=O | = | 7.11 |
| Cc1cc(Nc2nc(N3CCOC[C@H]3C)cc(C3(C#N)CC3)n2)[nH]n1 | = | 7.66 |
| Cc1cc(Nc2cc(C(C)(C)C#N)cc(N3CCOC[C@H]3C)n2)[nH]n1 | = | 7.93 |
| CCNC(=O)Nc1ccc(-c2nc(-c3c(C)nn(C)c3C)cc(N3CCOC[C@H]3C)n2)cc1 | = | 5.66 |
| C[C@@H]1COCCN1c1nc(-c2cc(Cl)cc3[nH]ccc23)nc2c1ccn2S(C)(=O)=O | = | 8.36 |
| Cc1cc(-c2ncc3c(-c4ccnn4C)cc(N4CCOC[C@H]4C)nn23)[nH]n1 | > | 7.00 |
| Cc1cc(-c2ncc3c(C(C)(C)C#N)cc(N4CCOC[C@H]4C)nn23)[nH]n1 | > | 7.00 |
| Cc1nn(C2CCNCC2)c(C(F)(F)F)c1-c1cc(N2CCOC[C@H]2C)nc(-c2cccc3[nH]ccc23)n1 | = | 9.00 |
| Cc1nn(C(C)C)c(C)c1-c1nc(-c2ccnc3[nH]ccc23)cc(N2CCOC[C@H]2C)n1 | = | 6.01 |
| C[C@@H]1COCCN1c1cc(C(C)(C)C#N)cc(Nc2ccn[nH]2)n1 | = | 7.77 |
| Cc1nnn(C)c1-c1cc(N2CCOC[C@H]2C)nc(-c2cccc3[nH]ccc23)n1 | = | 7.72 |
| Cc1cc(-c2nsc3c(C4(C(N)=O)CCCC4)cc(N4CCOC[C@H]4C)nc23)[nH]n1 | > | 7.00 |
| C[C@@H]1COCCN1c1cc(-c2ccnc3[nH]ccc23)nc(-c2ccc(S(C)(=O)=O)cc2)n1 | < | 5.00 |

====

From various publications: pIC50 for Serine/threonine-protein kinase ATR (Homo sapiens).
pIC50: −log10 of the molar value.

| Compound | Inequality Sign | pIC50 |
| --- | --- | --- |
| C[C@@H]1COCCN1c1cc(C2(S(C)(=O)=O)CC2)c2cnc(-c3ccn[nH]3)n2n1 | > | 7.00 |
| CNc1nc2ccccc2n1-c1nc(-c2c(C(F)(F)F)nn(C3CCCNC3)c2C)cc(N2CCOC[C@H]2C)n1 (stereo partly shown) | = | 8.00 |
| Cc1nnc(C)n1-c1cc(-c2cccc3[nH]ccc23)nc(N2CCOC[C@H]2C)c1 | = | 7.55 |
| Cc1nn(C)c(C)c1-c1nc(-c2ccnc3[nH]ccc23)nc(N2CCOC[C@H]2C)n1 | = | 7.39 |
| C[C@@H]1COCCN1c1cc(-c2ccnc3[nH]cnc23)nc2c1ccn2S(C)(=O)=O | = | 6.71 |
| Cc1noc(C)c1-c1cc(N2CCOC[C@H]2C)nc(-c2ccnc3[nH]ccc23)n1 | = | 7.33 |
| C[C@@H]1COCCN1c1cc(C2(C#N)CCOCC2)nc(Nc2ccn[nH]2)n1 | = | 7.71 |
| CNc1nc2ncccc2n1-c1nc(-c2c(C)nn(C3CCNCC3)c2C(F)(F)F)cc(N2CCOC[C@H]2C)n1 | = | 7.92 |
| Cc1nn(C2CCCN(C)C2)c(C)c1-c1cc(N2CCOC[C@H]2C)nc(-c2ccnc3[nH]ccc23)n1 (stereo partly shown) | = | 7.57 |
| Cc1cc(Nc2cc(C(C)(C)S(C)(=O)=O)cc(N3CCOC[C@H]3C)n2)[nH]n1 | = | 7.80 |
| CNc1nc2cc(F)ccc2n1-c1nc(-c2c(C(F)(F)F)nn(C3CCCNC3)c2C)cc(N2CCOC[C@H]2C)n1 (stereo partly shown) | = | 7.89 |
| Cc1c(-c2cc(N3CCOC[C@H]3C)nc(-c3ccc(C#N)c4[nH]ccc34)n2)c(C(F)(F)F)nn1C1CCNCC1 | = | 6.97 |
| Cc1nn(CC2CNC2)c(C)c1-c1cc(N2CCOC[C@H]2C)nc(-c2ccnc3[nH]ccc23)n1 | = | 7.33 |
| Cc1cc(-c2nc(-c3c(C)nnn3C)cc(N3CCOC[C@H]3C)n2)c2cc[nH]c2c1 | = | 7.70 |
| CCP(=O)(CC)c1cc(N2CCOC[C@H]2C)nn2c(-c3ccn[nH]3)ncc12 | > | 7.00 |
| Cc1nnc(C)n1-c1cc(-c2ccnc3[nH]ccc23)nc(N2CCOC[C@H]2C)c1 | = | 6.98 |
